subject.of.test: Histamine H1 receptor (Homo sapiens)
Sequence (P35367 whole entry): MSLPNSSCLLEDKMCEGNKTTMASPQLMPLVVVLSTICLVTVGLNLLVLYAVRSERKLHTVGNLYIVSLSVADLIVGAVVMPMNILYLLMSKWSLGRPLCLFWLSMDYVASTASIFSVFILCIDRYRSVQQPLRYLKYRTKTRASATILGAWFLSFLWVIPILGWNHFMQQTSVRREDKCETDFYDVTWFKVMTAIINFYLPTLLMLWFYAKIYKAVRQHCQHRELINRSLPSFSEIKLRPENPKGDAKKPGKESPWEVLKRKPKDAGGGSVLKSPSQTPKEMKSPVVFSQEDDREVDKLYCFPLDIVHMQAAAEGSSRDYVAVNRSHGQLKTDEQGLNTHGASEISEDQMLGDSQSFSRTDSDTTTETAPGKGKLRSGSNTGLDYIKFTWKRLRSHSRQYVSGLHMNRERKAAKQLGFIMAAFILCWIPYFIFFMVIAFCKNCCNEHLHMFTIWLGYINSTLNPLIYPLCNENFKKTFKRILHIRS
experimental.readout: AC50

Identify measured AC50 corresponding to CCN(CC)Cc1nccn1-c1ccc([N+](=O)[O-])cc1C(=O)c1ccccc1Cl
> 30 µM

* * *

Where a SMILES comes first, the peptide text is derived from it.
Below are AC50 values measured for Sodium-dependent serotonin transporter (Homo sapiens, UniProt P31645).

Worked examples follow.
Quick one: give measured AC50 for CCC(=O)[C@@]1(C)[C@H](C)C[C@H]2[C@@H]3CCC4=CC(=O)C=C[C@]4(C)[C@H]3[C@@H](O)C[C@@]21C [RIMEXOLONE]
> 10 µM

Quote AC50 reported for C[C@H](N)C(=O)N[C@@H](CCC(N)=O)C(=O)O [ALANYL GLUTAMINE] (H-Ala-Gln-OH) please.
> 30 µM

State, in one line, measured AC50 of CCN1C(=O)NC(c2ccccc2)C1=O (configuration not stated) [ETHOTOIN]
> 30 µM

Continuing:
Supply recorded AC50 for CN(C)CCN(Cc1ccccc1)c1ccccn1 [TRIPELENNAMINE] here.
0.209 µM
